System: N. gonorrhoeae MS11
PROTOCOL_DETAILS: Liquid broth MIC in Fastidious broth
COND: Neisseria gonorrhoeae, MS11, read-out: Minimum Inhibitory Concentration (MIC), N. gonorrhoeae MS11
ENDPOINT: MIC

• CN(CCN1CCN(C(=O)NC(C(=O)N[C@H]2Cc3ccc(F)c(C(=O)O)c3OB2O)c2cc(F)c(O)c(O)c2Cl)C(=O)C1=O)S(=O)(=O)c1cccc(C(N)=O)c1 (stereo partly drawn) [Example 224] = > 64 µg/mL
• O=C(O)c1cccc2c1OB(O)[C@@H](NC(=O)[C@H](NC(=O)c1c[nH]ccc1=O)c1ccc(P(=O)(O)O)cc1)C2 [Example 175] = 1 to 2 µg/mL
• O=C(NCCN1CCN(C(=O)N[C@@H](C(=O)N[C@H]2Cc3ccc(F)c(C(=O)O)c3OB2O)c2cc(F)c(O)c(O)c2Cl)C(=O)C1=O)Nc1cccnc1 [Example 222] = 16 to 32 µg/mL
• CCN1CCN(C(=O)N[C@H](C(=O)N[C@H]2Cc3ccc(F)c(C(=O)O)c3OB2O)c2ccc(P(=O)(O)O)cc2)C(=O)C1=O (single isomer, unassigned) [Example 9] = 1 to 2 µg/mL
• CS(=O)(=O)N1CCN(C(=O)N[C@H](C(=O)N[C@H]2Cc3cccc(C(=O)O)c3OB2O)c2ccc(P(=O)(O)O)cc2)C1=O (single isomer, unassigned) [Example 5] = < 1 µg/mL
• O=C(O)c1cccc2c1OB(O)[C@@H](NC(=O)[C@@H](NC(=O)N1CCCCC1=O)c1ccc(P(=O)(O)O)cc1)C2 [Example 36] = 16 to 32 µg/mL
